B1: glmS ribozyme (parent)
chain: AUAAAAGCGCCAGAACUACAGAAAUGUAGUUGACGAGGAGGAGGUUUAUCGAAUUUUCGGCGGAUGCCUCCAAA

variants of: B1; experiment: self-cleavage kobs at 2500 uM GlcN6P; higher = faster cleavage; RNA array; settings: with glucosamine-6-phosphate
Variants at the floor of the assay were thinned out.
measurement.kind: self-cleavage kobs at 2500 uM GlcN6P

Record excerpt, results attached:
1) G7C G29U G35U
< 1e-05 s⁻¹
2) C50A C67U C68U
0.000153 s⁻¹
3) A6U U54C
0.000165 s⁻¹
4) A6G G40C C50G
< 1e-05 s⁻¹
5) A12U G32A A52U U54C C61G G63U C71A
< 1e-05 s⁻¹
6) A12G U30G
5.48e-05 s⁻¹
7) A6G C16A C34A A36U G43U
< 1e-05 s⁻¹
8) A15G G32C C68G
< 1e-05 s⁻¹
9) U31G A33C C50U U56C A64G
< 1e-05 s⁻¹
10) A14U U57A
3.51e-05 s⁻¹

Briefly, self-cleavage kobs at 2500 uM GlcN6P measured for G13C G29A : 5.64e-05 s⁻¹

Briefly, self-cleavage kobs at 2500 uM GlcN6P measured for A6C C10U C11A U56C : < 1e-05 s⁻¹

Briefly, self-cleavage kobs at 2500 uM GlcN6P measured for C11U G29A U49G G62A C67G : < 1e-05 s⁻¹

Briefly, self-cleavage kobs at 2500 uM GlcN6P measured for G59U G62C C71A : < 1e-05 s⁻¹
